We begin with a simple list: items and their reported IC50.
- Subject Of Test: IκB-α kinase
- Assay Name: IκB-α kinase inhibition, in vitro kinase assay
Observable: IC50 (µM)

>>> quantitative_result("CC[C@H](CO)Nc1nc(NCc2cccc(OC)c2O)c2[nH]nc(C(C)C)c2n1")
0.012
>>> quantitative_result("CC[C@H](CO)Nc1nc(Nc2ccc(Cl)c(N)c2)c2[nH]nc(C(C)C)c2n1")
0.013
>>> quantitative_result("CC(C)c1n[nH]c2c(Nc3cccc(Cl)c3)nc(N[C@@H](CO)C(C)C)nc12")
0.009
>>> quantitative_result("CC(=O)Oc1ccccc1CNc1nc(N[C@@H](CO)C(C)C)nc2c(C(C)C)n[nH]c12")
0.012
